Source listed as patent US10899754B2.

Target: indoleamine 2, 3-dioxygenase (IDO1) (Homo sapiens, UniProt P14902)
Sequence (P14902 whole entry): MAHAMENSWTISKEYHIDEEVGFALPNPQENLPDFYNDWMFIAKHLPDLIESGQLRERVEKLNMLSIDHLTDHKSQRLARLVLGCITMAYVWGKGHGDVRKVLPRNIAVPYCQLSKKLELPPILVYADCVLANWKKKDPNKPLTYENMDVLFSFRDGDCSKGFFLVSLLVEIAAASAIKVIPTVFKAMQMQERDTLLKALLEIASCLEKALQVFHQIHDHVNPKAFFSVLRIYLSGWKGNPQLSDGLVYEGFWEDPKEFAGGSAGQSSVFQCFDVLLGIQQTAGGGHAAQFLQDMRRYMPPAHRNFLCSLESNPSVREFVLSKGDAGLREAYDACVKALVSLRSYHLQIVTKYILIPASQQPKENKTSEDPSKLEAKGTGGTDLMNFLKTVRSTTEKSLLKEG
Test: IDO1 PBMC RapidFire MS assay (kynurenine detection by mass spectrometry)
Format: cell-based
Set-up: to induce the expression of indoleamine 2, 3-dioxygenase (IDO1); host or cells: human PBMC stimulated with IFN-gamma and LPS
Settings: human PBMC stimulated with IFN-γ and LPS, 2 days, pIC50, read-out: PBMC PXC50 (converted)
testReadout: IC50 (nM)
// units = nM; emit number, no label

Input: Specify measured IC50 for CC(C)CN(c1ccc(C(C)Nc2c(O)c(=O)c2=O)cc1Nc1nc(C(F)(F)F)ns1)C1CCOCC1 (stereo not drawn) .
Output: 2510

Input: Answer with the recorded IC50 of CC(C)CN(c1ccc([C@H](C)CC(=O)O)cc1Nc1cccc(Cl)n1)C1CCCCC1 only.
Output: 7.94

Input: Please indicate IC50 recorded for CC(C)CN(CC(C)C)c1ccc([C@H](C)CC(=O)O)cc1Nc1ccc(=O)[nH]c1
Output: 3980

Input: Quote IC50 reported for CO[C@H](C)CN(CC(C)C)c1ccc([C@H](C)CC(=O)O)cc1Nc1nc(C(F)(F)F)ns1 please.
Output: 10

Input: Fill in reported IC50 for this entry: CONC(=O)C[C@@H](C)c1ccc(N(CC(C)C)C2CCOCC2)c(Nc2nc(C(F)(F)F)ns2)c1
Output: 6.31

Input: Query IC50 for CC(C)CN(c1ccc(C(C)(C)CC(=O)O)cc1Nc1nc(Cl)ns1)C1CCOCC1
Output: 5.01

Input: Return IC50 (reported value) for this compound: CC[C@H](CC(=O)O)c1ccc(N(CC(C)C)C2CCCCC2)c(Nc2nc(Cl)ns2)c1
Output: 0.501

Input: Give the measured IC50 for CC(C)CN(c1ccc([C@H](C)CC(=O)NS(C)(=O)=O)cc1Nc1nc(C(F)(F)F)ns1)C1CCOCC1
Output: 6.31

Input: Give recorded IC50. CC(C)CN(c1ccc(-c2ccccc2C(=O)O)cc1Nc1nc(C(F)(F)F)ns1)C1CCOCC1
Output: 1.58

Input: Supply IC50 value. Item: CC(C)CN(c1ccc([C@H](C)Cc2nnn[nH]2)cc1Nc1nc(C(F)(F)F)ns1)C1CCOCC1
Output: 1.26

Input: Name the recorded IC50 of the compound listed here: CNC(=O)c1c[nH]c(Nc2cc([C@H](C)CC(=O)O)ccc2N(CC(C)C)C2CCOCC2)n1
Output: 3160

Input: Specify reported IC50 for the compound shown: CC(C)CN(c1ccc([C@H](C)CC(=O)O)cc1NC1CCCC(C)(C)C1)C1CCCCC1 (stereo partly drawn)
Output: 200

Input: Report IC50, nothing else, for this compound: COCC(=O)N1CCC(N(CC(C)C)c2ccc([C@H](C)CC(=O)O)cc2Nc2nc(C(F)(F)F)ns2)CC1
Output: 10

Input: Quote IC50 reported for CC(C)CN(c1ccc([C@H](C)CC(=O)O)cc1Nc1nnc(C2CC2)s1)C1CCOCC1 please.
Output: 3.16

Input: Report IC50 for COC(=O)c1c[nH]c(Nc2cc([C@H](C)CC(=O)O)ccc2N(CC(C)C)[C@H]2CC[C@@H](OC)CC2)n1
Output: 1.58

---

Target: UniProtKB P14902
Experiment: IDO1 PBMC RapidFire MS assay (kynurenine detection by mass spectrometry)
Assay type: cell-based
Parameters: to induce the expression of indoleamine 2, 3-dioxygenase (IDO1); host or cells: human PBMC stimulated with IFN-gamma and LPS
Details: human PBMC stimulated with IFN-γ and LPS, 2 days, pIC50, read-out: PBMC PXC50 (converted)
Categorized via IC50: bottom range: < 3 nM; center range: ≥ 3 nM and < 40 nM; top range: ≥ 40 nM

Solved entries (count: 5):
>  <molecule>
CC(C)CN(CC(C)C)c1ccc(C2CC2C(=O)O)cc1Nc1nc(C(F)(F)F)ns1 (stereo not drawn)

>  <assaySystem>
UniProtKB P14902

>  <class>
center range

$$$$
>  <molecule>
CC(C)CN(CC(C)C)c1ccc(C(C)CC(=O)O)cc1Nc1ncccn1 (stereo not drawn)

>  <assaySystem>
UniProtKB P14902

>  <class>
top range

$$$$
>  <molecule>
CC(C)CN(CC(C)C)c1ccc([C@H](C)CC(=O)O)cc1Nc1nc(C(F)(F)F)c[nH]1

>  <assaySystem>
UniProtKB P14902

>  <class>
bottom range

$$$$
>  <molecule>
COCCc1nnc(Nc2cc([C@H](C)CC(=O)O)ccc2N(CC(C)C)CC(C)C)[nH]1

>  <assaySystem>
UniProtKB P14902

>  <class>
center range

$$$$
>  <molecule>
CC(C)CN(c1ccc([C@H](C)CC(=O)O)cc1Nc1nc(C(F)(F)F)ns1)[C@H]1CC[C@H](O)CC1

>  <assaySystem>
UniProtKB P14902

>  <class>
bottom range

$$$$

Input: Category of CC(C)CN(c1ccc(C(C)CC(=O)O)cc1NCc1ncccn1)C1CCCCC1 (stereo not drawn) :
Output: top range

Input: Textbook exercise: identify the category of the molecule given here, CC(C)CN(CC(C)C)c1ccc([C@H](C)CC(=O)O)cc1Nc1nc(C(F)(F)F)cn1COCC[Si](C)(C)C , according to its measured value.
Output: top range

Input: Which IC50 band matches CC(C)CN(c1ccc([C@H](C)CC(=O)O)cc1Nc1nc(C(F)(F)F)ns1)C1CCN(C(=O)C2CC2)CC1 ?
Output: bottom range

Input: Which IC50 band matches CC(C)CN(c1ccc(-c2ccccc2C(=O)O)cc1Nc1cccc(Cl)n1)C1CCCCC1 ?
Output: top range

---

# IC50 listing for each entry below
Target: UniProt:P14902
Assay: IDO1 HeLa RapidFire MS assay (kynurenine detection by mass spectrometry)
Type: cell-based
Set-up: to induce the expression of indoleamine 2, 3-dioxygenase (IDO1)
Conditions: HeLa cells, pIC50, read-out: IDO1_HELA_PXC50 (converted)
Procedure: IDO1 HeLa RapidFire MS Assay Compounds of the present invention were tested via high-throughput cellular assays utilizing detection of kynurenine via mass spectrometry and cytotoxicity as end-points. […] Cellular toxicity due to the effect of compound treatment was measured using CellTiter-Glo® reagent (CTG) (Promega Corporation, Madison, Wis.), which is based on luminescent detection of ATP, an indicator of metabolically active cells. […]
Dear colleague, please return just the value in nM, with no unit written.

Input: Send back UniProt:P14902 IC50 of Cc1nsc(Nc2cc(-c3ccccc3C(=O)O)ccc2N(CC(C)C)CC(C)C)n1 only.
Output: 501

Input: Specify the recorded IC50 for COc1ncc(Nc2cc([C@H](C)CC(=O)O)ccc2N(CC(C)C)C2CCOCC2)cn1 , system: UniProt:P14902.
Output: 7.94

---

Listing of entries alongside the reported HELA_IDO1_TOX_PXC50.
Tested on: human epithelial HeLa cells
Assay: HeLa cytotoxicity assay (CellTiter-Glo)
Type: cell-based
Conditions: pCC50

Input: Report HELA_IDO1_TOX_PXC50 for CC(C)CN(CC(C)C)c1ccc(C(C)CC(=O)O)cc1Nc1nc(C(C)(C)C)cs1 (stereo not shown)
Output: 4.5

Input: Specify measured HELA_IDO1_TOX_PXC50 for CC(C)CN(c1ccc(C(C)CC(=O)O)cc1Nc1nc2ccccn2n1)C1CCCCC1 (stereo not shown) .
Output: <5

Input: Note down HELA_IDO1_TOX_PXC50 recorded for CC(C)CN(CC(C)C)c1ccc(C(C)CC(=O)O)cc1Nc1ccccc1 (stereo not shown)
Output: <5

Input: Determine from records and report HELA_IDO1_TOX_PXC50 for CC(C)CN(CC(C)C)c1ccc(C(C)CC(=O)O)cc1Nc1nc(N2CCC2)ns1 (stereo not shown)
Output: <4.3

Input: Provide HELA_IDO1_TOX_PXC50 value for the following compound: CC(C)CN(c1ccc(C2CC2C(=O)O)cc1Nc1nc(C(F)(F)F)ns1)C1CCCCC1 (single isomer, unassigned) [Example 105]
Output: <5

Input: Determine its reported HELA_IDO1_TOX_PXC50: CC(=O)Nc1nnc(Nc2cc(C(C)CC(=O)O)ccc2N(CC(C)C)CC(C)C)s1 (stereo not shown)
Output: <5

Input: Given CC(C)CN(c1ccc([C@H](C)CC(=O)O)cc1Nc1nnc(C(C)C)[nH]1)C1CCOCC1 , respond with its HELA_IDO1_TOX_PXC50.
Output: <5

Input: Please look at this compound and report its HELA_IDO1_TOX_PXC50: CC(C)CN(c1ccc(C(C)(C)CC(=O)O)cc1Nc1nc(C(F)(F)F)ns1)C1CCOCC1
Output: <5

Input: Please list HELA_IDO1_TOX_PXC50 recorded for the compound CC(C)CN(CC(C)C)c1ccc(C(C)CC(=O)O)cc1Nc1noc(-c2ccccc2)n1.O=C(O)C(F)(F)F (stereo not shown)
Output: <4.3

Input: Give a short answer stating reported HELA_IDO1_TOX_PXC50 for CC(C)CN(c1ccc([C@H](C)CC(=O)O)cc1Nc1cnc(C#N)cn1)C1CCOCC1 .
Output: <5

Input: Give the value of HELA_IDO1_TOX_PXC50 reported for the following: COCCN(c1ccc(-c2ccccc2C(=O)O)cc1Nc1nc2ccccc2[nH]1)C1CCCCC1
Output: <5

Input: Give the reported HELA_IDO1_TOX_PXC50 for this compound. CC(C)CN(c1ccc(-c2cnccc2C(=O)O)cc1Nc1nc2ccccc2o1)C1CCCCC1
Output: <5

Input: Input CC(C)CN(c1ccc(-c2cccnc2C(=O)O)cc1Nc1nc2ccccc2o1)C1CCCCC1 , output reported HELA_IDO1_TOX_PXC50.
Output: <5

Input: State its HELA_IDO1_TOX_PXC50: CC(C)CN(c1ccc(C(C)CC(=O)O)cc1NC1=N[C@@H](C)CO1)C1CCCCC1 (stereo partly shown)
Output: 5.4

Input: Please report HELA_IDO1_TOX_PXC50 for the following compound: CC(C)CN(c1ccc(C(C)CC(=O)O)cc1NC1COC1)C1CCCCC1 (stereo not shown)
Output: <4.3

Input: Hello, please tell me recorded HELA_IDO1_TOX_PXC50 for this one: CC(C)CN(c1ccc(C(C)CC(=O)O)cc1NCc1ccccn1)C1CCCCC1 (stereo not shown)
Output: <5
